- EXPERIMENTAL TARGET: BACE2 (Rattus norvegicus, UniProt Q6IE75)
- Construct: endogenous cellular BACE2 in the Ins1e rat cell line; endogenous in cells
- Sequence (Q6IE75 63-514): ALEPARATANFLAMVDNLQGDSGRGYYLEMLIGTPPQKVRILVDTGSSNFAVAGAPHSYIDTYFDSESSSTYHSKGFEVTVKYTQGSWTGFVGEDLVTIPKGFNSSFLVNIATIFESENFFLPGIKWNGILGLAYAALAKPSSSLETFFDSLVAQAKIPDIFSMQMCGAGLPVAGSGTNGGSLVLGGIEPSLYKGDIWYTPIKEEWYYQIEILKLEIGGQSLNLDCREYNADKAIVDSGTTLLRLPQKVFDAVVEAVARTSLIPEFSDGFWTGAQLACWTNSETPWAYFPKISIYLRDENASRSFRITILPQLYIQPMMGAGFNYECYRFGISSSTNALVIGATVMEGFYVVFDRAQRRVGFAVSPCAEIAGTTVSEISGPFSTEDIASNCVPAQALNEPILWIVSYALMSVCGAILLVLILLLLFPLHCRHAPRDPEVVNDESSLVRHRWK
- ASSAY NOTES: Assay for BACE inhibition by measuring cellular TMEM27 cleavage;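 note: inhibitor added 2 h before doxycycline-induced hTMEM27 expression, supernatant collected after further 46 h, endogenous BACE2 activity read as reduced TMEM27 shedding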
- ASSAY SETUP: INS-TMEM27 (INS1e-derived) cells, ELISA of shed human TMEM27 in supernatant
pIC50: −log10 of the molar value. Structures can show the parent of a compound that is named as a salt.
Let's look at some compounds and their measured pIC50.
MEASUREMENT LABEL: pIC50

>  <COMPOUND>
CC1(C)OCC(N)=N[C@]1(C)c1cc(NC(=O)C2(C(F)(F)F)CC2)ccc1F

>  <MEASUREMENT LABEL>
pIC50

>  <READING>
7.34

$$$$
>  <COMPOUND>
CC1(c2cc(NC(=O)c3ccc(Cl)cn3)ccc2F)COCC(N)=N1 (racemic)

>  <MEASUREMENT LABEL>
pIC50

>  <READING>
8.22

$$$$
>  <COMPOUND>
C[C@@]1(c2cc(NC(=O)C(F)F)ccc2F)COCC(N)=N1 [Example 91, formate]

>  <MEASUREMENT LABEL>
pIC50

>  <READING>
7.02

$$$$
>  <COMPOUND>
C[C@@]1(c2cc(NC(=O)c3ncco3)ccc2F)COCC(N)=N1

>  <MEASUREMENT LABEL>
pIC50

>  <READING>
7.08

$$$$
